biological target: human factor XIa (Homo sapiens, UniProt P03951); construct: purchased Kordia; assay: Measurement of FXIa inhibition (fluorogenic peptide substrate Boc-Glu(OBzl)-Ala-Arg-AMC); type: biochemical; conditions: factor XIa from Kordia, 15 min preincubation, 30 min at 22° C., fluorescence; read-out: IC50
Sequence (P03951 388-625 limits assumed): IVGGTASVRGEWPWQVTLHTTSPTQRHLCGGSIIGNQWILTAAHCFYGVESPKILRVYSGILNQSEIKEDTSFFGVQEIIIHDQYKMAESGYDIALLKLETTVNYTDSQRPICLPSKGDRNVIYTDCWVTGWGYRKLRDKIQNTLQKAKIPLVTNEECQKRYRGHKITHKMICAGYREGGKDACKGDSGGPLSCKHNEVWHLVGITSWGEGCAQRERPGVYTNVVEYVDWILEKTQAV
Sequence (P03951 19-387 partner limits assumed): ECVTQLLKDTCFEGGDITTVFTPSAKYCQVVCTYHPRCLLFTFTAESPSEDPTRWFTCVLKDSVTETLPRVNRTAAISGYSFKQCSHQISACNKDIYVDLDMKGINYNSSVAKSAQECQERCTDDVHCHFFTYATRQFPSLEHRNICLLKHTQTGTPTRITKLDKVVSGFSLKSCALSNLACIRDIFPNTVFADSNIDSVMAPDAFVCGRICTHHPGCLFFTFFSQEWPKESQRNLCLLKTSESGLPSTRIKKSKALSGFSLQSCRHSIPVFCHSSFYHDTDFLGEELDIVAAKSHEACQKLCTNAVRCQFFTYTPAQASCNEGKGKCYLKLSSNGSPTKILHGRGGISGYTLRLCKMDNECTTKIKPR
Where a name gives a salt, the structure may show the parent alone.
measure.name: log10 IC50 (log10 of the value in nM)
Values are log10 of IC50 in nM.

Here are 5 molecules together with their reported answers.
* NC[C@H]1CC[C@H](C(=O)N[C@@H](Cc2ccc(-c3ccc(N4CCNCC4)cc3)cc2)C(=O)Nc2ccc(-c3noc(=O)[nH]3)cc2)CC1 [Example 6, hydrochloride] | 1.38
* NC[C@H]1CC[C@H](C(=O)N[C@@H](Cc2ccc(-c3ccc(N4CCOCC4=O)cc3)cc2)C(=O)Nc2ccc(-c3nn[nH]n3)cc2)CC1 [Example 25, hydrochloride] | 0.40
* Cc1cc(S(=O)(=O)NC(C)C)ccc1-c1ccc(C[C@H](NC(=O)[C@H]2CC[C@H](CN)CC2)C(=O)Nc2ccc3c(=O)[nH][nH]c3c2)cc1 [Example 14, hydrochloride] | 0.51
* NC[C@H]1CC[C@H](C(=O)N[C@@H](Cc2ccc(-c3ccc(S(N)(=O)=O)cc3)cc2)C(=O)Nc2ccc(-c3nnc(Cl)[nH]3)cc2)CC1 [Example 22, hydrochloride] | 0.18
* NC[C@H]1CC[C@H](C(=O)N[C@@H](Cc2ccc(-c3ccc(N4CCNCC4)cc3)cc2)C(=O)Nc2ccc(-c3nn[nH]n3)cc2)CC1 [Example 2, hydrochloride] | 0.63

log10 IC50 of Cc1cc(NC(=O)CNC(=O)CNC(=O)CN)ccc1-c1ccc(C[C@H](NC(=O)[C@H]2CC[C@H](CN)CC2)C(=O)Nc2ccc(-c3nn[nH]n3)cc2)cc1 [Example 9, hydrochloride] , assay on human factor XIa (Homo sapiens, UniProt P03951), is 0.92

Form field, log10 IC50 with human factor XIa (Homo sapiens, UniProt P03951), item Cc1cc(S(N)(=O)=O)ccc1-c1ccc(C[C@H](NC(=O)[C@H]2CC[C@H](CN)CC2)C(=O)Nc2ccc(-c3nnc(Cl)[nH]3)cc2)cc1 [Example 20, hydrochloride] : 0.26

Known value: human factor XIa (Homo sapiens, UniProt P03951) log10 IC50 of the molecule COC(=O)c1ccc(-c2ccc(C[C@H](NC(=O)[C@H]3CC[C@H](CN)CC3)C(=O)Nc3ccc(-c4nn[nH]n4)cc3)cc2)c(Cl)c1.Cl [Example 11, hydrochloride] equals 0.28

The value of log10 IC50 recorded for Cc1cc(S(=O)(=O)NC2CCNCC2)ccc1-c1ccc(C[C@H](NC(=O)[C@H]2CC[C@H](CN)CC2)C(=O)Nc2ccc(-c3nnn[nH]3)cc2)cc1 [Example 1, hydrochloride] when tested on human factor XIa (Homo sapiens, UniProt P03951) reads 0.04

Record Cc1cc(S(=O)(=O)N(C)C)ccc1-c1ccc(C[C@H](NC(=O)[C@H]2CC[C@H](CN)CC2)C(=O)Nc2ccc(-c3nn[nH]n3)c(F)c2)cc1 [Example 24, hydrochloride] / human factor XIa (Homo sapiens, UniProt P03951), log10 IC50 recorded as -0.40

----------
Form field: pIC50 (one value per entry).
molecular target: human factor XIa (Homo sapiens); construct: purchased Kordia; test: Measurement of FXIa inhibition (fluorogenic peptide substrate Boc-Glu(OBzl)-Ala-Arg-AMC); format: biochemical; details: factor XIa from Kordia, 15 min preincubation, 30 min at 22° C., fluorescence; read-out: IC50
Where a name gives a salt, the structure may show the parent alone.
Here pIC50 is given on a logarithmic scale as minus log10 of the concentration in mol/L.

Known results for compounds:
- NC[C@H]1CC[C@H](C(=O)N[C@@H](Cc2ccc(-c3ccc(S(=O)(=O)NC4CCNCC4)cc3C(F)(F)F)cc2)C(=O)Nc2ccc(-c3nn[nH]n3)cc2)CC1 [Example 8, hydrochloride]: 9.00
- COCCOc1ccc(-c2ccc(C[C@H](NC(=O)[C@H]3CC[C@H](CN)CC3)C(=O)Nc3ccc(-c4nn[nH]n4)cc3)cc2)cc1 [Example 3, hydrochloride]: 8.09
- Cc1cc(S(=O)(=O)N(C)C)ccc1-c1ccc(C[C@H](NC(=O)[C@H]2CC[C@H](CN)CC2)C(=O)Nc2ccc3c(=O)[nH][nH]c3c2)cc1 [Example 13, hydrochloride]: 8.51
- CC(=O)Nc1ccc(-c2ccc(C[C@H](NC(=O)[C@H]3CC[C@H](CN)CC3)C(=O)Nc3ccc(-c4nn[nH]n4)cc3)cc2)cc1F [Example 26, hydrochloride]: 8.33

Lab note: COc1ccc(-c2ccc(C[C@H](NC(=O)[C@H]3CC[C@H](CN)CC3)C(=O)Nc3ccc(-c4nn[nH]n4)cc3)cc2)c(C(F)(F)F)c1 [Example 27, hydrochloride] gave pIC50 of 8.35

----------
test system: plasma; assay: Determination of anticoagulatory activity: activated partial thromboplastin time (aPTT) in plasma; type: biochemical, human; settings: concentration of test substance which brings about a 1.5-fold extension of the aPTT, C.K. Prest kit, 37° C.
Counter-ions that a name gives are not always drawn.
measure.name: Concentration for 1.5-fold aPTT extension (µmol/L)
The reply should be a number in µmol/L, with the unit left off.

Solved entries (count: 4):
- Cc1cc(S(=O)(=O)NC2CC2)ccc1-c1ccc(C[C@H](NC(=O)[C@H]2CC[C@H](CN)CC2)C(=O)Nc2ccc3c(=O)[nH][nH]c3c2)cc1 [Example 12, hydrochloride]: 0.04
- COc1ccc(-c2ccc(C[C@H](NC(=O)[C@H]3CC[C@H](CN)CC3)C(=O)Nc3ccc(-c4nn[nH]n4)cc3)cc2)c(C(F)(F)F)c1 [Example 27, hydrochloride]: 0.21
- CNS(=O)(=O)c1ccc(-c2ccc(C[C@H](NC(=O)[C@H]3CC[C@H](CN)CC3)C(=O)Nc3ccc4c(=O)[nH][nH]c4c3)cc2)c(C)c1 [Example 18, hydrochloride]: 0.13
- NC[C@H]1CC[C@H](C(=O)N[C@@H](Cc2ccc(-c3ccc(S(N)(=O)=O)cc3)cc2)C(=O)Nc2ccc(-c3nnc(Cl)[nH]3)cc2)CC1 [Example 22, hydrochloride]: 0.25

Please examine the following record next.
Entry Cc1cc(S(N)(=O)=O)ccc1-c1ccc(C[C@H](NC(=O)[C@H]2CC[C@H](CN)CC2)C(=O)Nc2ccc(-c3nnc(Cl)[nH]3)cc2)cc1 [Example 20, hydrochloride] — recorded Concentration for 1.5-fold aPTT extension = 0.18

----------
Each entry below lists one item and its recorded pIC50 value.
target: human factor XIa (Homo sapiens); construct: purchased Kordia; assay: Measurement of FXIa inhibition (fluorogenic peptide substrate Boc-Glu(OBzl)-Ala-Arg-AMC); type: biochemical; settings: factor XIa from Kordia, 15 min preincubation, 30 min at 22° C., fluorescence; read-out: IC50
Structures can show the parent of a compound that is named as a salt.
Here pIC50 is given on a logarithmic scale as minus log10 of the concentration in mol/L.

Some compounds with known pIC50 results, for comparison:
• NC[C@H]1CC[C@H](C(=O)N[C@@H](Cc2ccc(-c3ccc(S(=O)(=O)NCCO)cc3)cc2)C(=O)Nc2ccc(-c3nnc(Cl)[nH]3)cc2)CC1 [Example 19, hydrochloride] = 8.64
• CCN(CC)S(=O)(=O)c1ccc(-c2ccc(C[C@H](NC(=O)[C@H]3CC[C@H](CN)CC3)C(=O)Nc3ccc4c(=O)[nH][nH]c4c3)cc2)c(C)c1 [Example 17, hydrochloride] = 8.46
• CN1CCN(c2ccc(-c3ccc(C[C@H](NC(=O)[C@H]4CC[C@H](CN)CC4)C(=O)Nc4ccc(-c5nn[nH]n5)cc4)cc3)cc2)CC1 [Example 4, hydrochloride] = 7.74
• Cc1cc(S(=O)(=O)NC2CC2)ccc1-c1ccc(C[C@H](NC(=O)[C@H]2CC[C@H](CN)CC2)C(=O)Nc2ccc3c(=O)[nH][nH]c3c2)cc1 [Example 12, hydrochloride] = 8.57
• CN(C)C1CCC(NS(=O)(=O)c2ccc(-c3ccc(C[C@H](NC(=O)[C@H]4CC[C@H](CN)CC4)C(=O)Nc4ccc5[nH]c(=O)[nH]c5c4)cc3)c(C(F)(F)F)c2)CC1 (stereo partly shown) [Example 28, hydrochloride] = 8.28

Measured pIC50, CNS(=O)(=O)c1ccc(-c2ccc(C[C@H](NC(=O)[C@H]3CC[C@H](CN)CC3)C(=O)Nc3ccc4c(=O)[nH][nH]c4c3)cc2)c(C)c1 [Example 18, hydrochloride] : 8.27

Cc1cc(S(=O)(=O)N2CCCC2)ccc1-c1ccc(C[C@H](NC(=O)[C@H]2CC[C@H](CN)CC2)C(=O)Nc2ccc3c(=O)[nH][nH]c3c2)cc1 [Example 15, hydrochloride] yielded pIC50 of 8.55

----------
Form: system (human plasmin (Homo sapiens, UniProt P00747)), quantity (pIC50), values below.
Structures can show the parent of a compound that is named as a salt.
As a rule, pIC50 stands for the negative log10 of the concentration, concentration in M.

Data point: Cc1cc(S(=O)(=O)NC2CC2)ccc1-c1ccc(C[C@H](NC(=O)[C@H]2CC[C@H](CN)CC2)C(=O)Nc2ccc3c(=O)[nH][nH]c3c2)cc1 [Example 12, hydrochloride] ; pIC50 = 7.52

GET /value?item= Cc1cc(S(=O)(=O)N2CCCC2)ccc1-c1ccc(C[C@H](NC(=O)[C@H]2CC[C@H](CN)CC2)C(=O)Nc2ccc3c(=O)[nH][nH]c3c2)cc1 [Example 15, hydrochloride] &field=pIC50 returns 7.64
